Where do the numbers come from? From ChEMBL document CHEMBL1156692.

Item-by-item account of TD50 at 0.5 h
# method-notes: Neurotoxicity in ip dosed C57B/6 mouse after 30 mins by rotarod test
# Type: toxicity, organism-based
# stated-conditions: in vivo

Example compounds with recorded TD50 at 0.5 h:
>>> value_measured("CN(Cc1ccc(F)cc1)c1ccc2c(c1)OCC(=O)N2C")
"> 300 mg/kg"
>>> value_measured("CCOc1ccc(CNc2ccc3c(c2)OCC(=O)N3)cc1")
"> 300 mg/kg"
>>> value_measured("O=C1COc2cc(NCc3ccccc3Cl)ccc2N1")
"> 300 mg/kg"
>>> value_measured("O=C1COc2cc(NCc3ccccc3)ccc2N1")
"182 mg/kg"

TD50 at 0.5 h for `O=C1COc2cc(NCc3cccc(F)c3)ccc2N1` is 228 mg/kg

TD50 at 0.5 h for `O=C1COc2cc(NCc3ccccc3F)ccc2N1` is 183 mg/kg

TD50 at 0.5 h for `O=C1COc2ccccc2N1` is > 300 mg/kg

###

Item-by-item account of TD50 at 0.5 h
# method-notes: Neurotoxicity in ip dosed C57B/6 mouse after 30 mins by rotarod test
# Assay type: toxicity, organism-based
# stated-conditions: in vivo

Example compounds with recorded TD50 at 0.5 h:
>>> value_measured("O=C1COc2cc(NCc3ccc(Cl)cc3)ccc2N1")
"> 300 mg/kg"
>>> value_measured("Cc1ccc(CNc2ccc3c(c2)OCC(=O)N3)cc1")
"> 300 mg/kg"
>>> value_measured("O=C1COc2cc(NCc3ccc(Br)cc3)ccc2N1")
"> 300 mg/kg"
>>> value_measured("NC(=O)N1c2ccccc2C=Cc2ccccc21 [CARBAMAZEPINE]")
"74.4 mg/kg"
>>> value_measured("O=C1COc2cc(NCc3ccc(F)cc3)ccc2N1")
"228 mg/kg"

TD50 at 0.5 h for `O=C1COc2cc(NCc3ccc4c(c3)OCO4)ccc2N1` is > 300 mg/kg
